experiment description: NCI Yeast Anticancer Drug Screen. Data for the bub3 strain (AID 167)
applied conditions: S. cerevisiae bub3 mutant strain, at 50.0 µM (retest, dose inferred, filed as 5.0)
Compounds without any hit were thinned out: in the full panel of roughly 79,000, 15% have a hit. Active and inactive are the calls of the source. Cut-off read from the data, not from the text of the source: active = growth inhibition above about 70%; inactive = the rest.
Answer with one of the outcomes given here: active, inactive

C/C(=N/NC(=S)N(C)C)c1ccccc1O    inactive
O=C1C(Br)=C(Sc2ccc([N+](=O)[O-])cc2)C(=O)c2ccccc21    active
O=C(O)/C=C/C(=O)NNc1nc2ccccc2s1    inactive

Could you check what this test reported for O=C(O)CSc1cc2c3ccccc3sc2c2ccccc12 ?
active

Next: Cc1ccc(Nc2nc3c(s2)C(=O)c2ccccc2C3=O)cc1
active

Next: N#CC1C(=O)NC(=O)C(C#N)C1c1ccc(Cl)c(Cl)c1 (configuration not stated)
inactive
